Cited source: the supplement of paper PMC9170038

Tested on: K4 kissing-loop RNA reporter;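 further: bound reporter read as fluorescence of individual clusters on recovered sequencing chips by microscopy, with normalized cluster intensities fitted with a binding model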
Experiment: apparent KD of K4 kissing-loop reporter; higher = weaker reporter binding
Conditions: Eterna round: R107; input ligand: arginine 13.2 mM
Assignment: determine reported apparent KD of K4 kissing-loop reporter for the given sequences.
Kindly answer with a numeric value in nM, unit omitted.

For the sequence UGUCAUUGGUCUGAUACCAGAAGAUAUUCUGGAGUGAUGUUCCAAGUACGACAAAGUCGCUUCCCUUGGCAGCAGACCGAUGACU [TheoBS 20 #SwitchBubble 13 #StaticStem] , what apparent KD of K4 kissing-loop reporter is on record? 195

Also AUUCUGUUUUUGAUGUUUUUUGUAUAAUGGCAGGAUAUCGUAGAAGCGAGAAGGGCUUUUAUGCGUUAUGAGUGAUGUUUGUAGG [ttytewvmullin] , if possible. 222

Also `AAGGGCGAGGUAACGUGGAUAUCUCGUCGCAAGGAUAUCUGGAAACAGAGAAGGUGCUACAUUACCGGCAGUGAUGUUGCUGACC` , if possible. 312

Also AAUCAAUACAGAAGGAGCGUGACAAUUACUAUUGAAUUAGGAGCUAGUGAUGUUAGCAUAACACAGGUAGGUCGCUGUACAUUUA [JR_SSArginiB_Sub012] , if possible. 175

Also AAUCGCAGUGAUGUUGCGAUUCCGUUGAGGGAGGAUAUUGGUAAUACAAGAAGGUUCGGUUACGGGAGAUGUUAGUAAUAGGGCC [Exclusion FMN A GF21] , if possible. 41.3

Also `UUCAGUGACAUACGAGUGAUGUUCGUAAUACGAGGACCGGUACGGCCGCCACUCGCACGUCGGCAGUUUGUUCAUGCAUCAGACU` , if possible. 160

---

System: MS2 coat protein
Experiment: apparent KD of MS2 coat protein; designed switch direction (-1 OFF switch, 1 ON switch): 1; higher = weaker reporter binding
Settings: Eterna round: R95; input ligand: microRNA oligo, concentration not stated
Measure name: apparent KD of MS2 coat protein (nM)
Kindly answer with a numeric value in nM, unit omitted.

For the sequence CAGCGCUGUCGAGAGGAUAUGCGGUGGUGGACAUGAGGAUCACCCAUGUUAGCGAUAGCAUUACGGUAGAAGGCUCUACAGCUGC [Soteed - 2] (puzzle: Same State 2) , what apparent KD of MS2 coat protein is on record? 22.4

Also UUAAGCAGCGGGCAGGAUAUGUAUUAAAAUACAUGAGGAUCACCCAUGUGCAGGUGUAACACCUGACAGAAGGGCCAAUCGGUGC [Soteed - 9] (puzzle: Same State 2) , if possible. 197

Also UACAAUCUAUCUGAGGAUAUCAUGUAUUAAACAUGAGGAUCACCCAUGUGCAGGAAAACUGCAUAUGAGAAGGCAGAUAGAUUGU [salish99_ss2_r3_064] (puzzle: Same State 2) , if possible. 41.9

Also GUAGAUAUAACGCAGGAUAUUCAAUGAGAGACAUGAGGAUCACCCAUGUGAGAGUGAGAUGAUAGGAAGAAGGGUGAGAGAGAUG [Altered State 2-8 - Jieux - Same State 2] (puzzle: Same State 2) , if possible. 124

Also AACCUACAUGAGGAUCACCCAUGUAUCUGAGGCACAGGAUAUCGACAGGCAAGACACCUGCGAGAAGGGUGACCUC [Same State 1 - Mod of Vinnie Diatater v.2] (puzzle: Same State 1) , if possible. 53.6

Also AGUCCUGAAUAAAUUAAACAGAGACAUGUACAUGAGGAUCACCCAUGUCAUGUGCAAGUUUUAUGCUCGUCAUAUAA [Sensorship 18 - Jieux - Sensor for hsa-mir-208a] (puzzle: Sensor for hsa-mir-208a) , if possible. 8.35

Also AGUCCAGCCUAAGCUGGACAAAAGCAUGUACAUGAGGAUCACCCAUGUUCAUGUACAAGCUUUUUGCAAGUCAAAAU [Mat - hsa-mir-208a - Mod of JL - 79] (puzzle: Sensor for hsa-mir-208a) , if possible. 19.3

Also AAGAGACAUGAGGAUCACCCAUGUUUGAAUAAUAUAGGAUAUAUACCACAUGUAAAAGAAAUAGAAGGAUAAGAAA [Default title] (puzzle: Same State 1) , if possible. 114

Also AACAUUCUAUCUCAGGAUAUCAUGUCAAAGACAUGAGGAUCACCCAUGUACCAGGAAACUGGUUAUGAGAAGGGAGAUAGAAUGG [Mat - Same State 2 - Mod - D48] (puzzle: Same State 2) , if possible. 195

Also UCUUGGUUUUUGCUCGUUUUUUGUGUUGAACAUGAGGAUCACCCAUGUAUUGUACGGUCCGGUUUAGUAGUGGUCCG [JMF 17] (puzzle: Sensor for hsa-mir-208a) , if possible. 16.6

---

Tested on: MS2 coat protein
Assay: apparent KD of MS2 coat protein; designed switch direction (-1 OFF switch, 1 ON switch): -1; higher = weaker reporter binding
Conditions: input ligand: FMN 200 uM
Assignment: determine reported apparent KD of MS2 coat protein for the given sequences.
Kindly answer with a numeric value in nM, unit omitted.

For the sequence CACUGGACAGGAUAUGUUCUUGAGCACUUGAGGAUCACCCAAGUCAUCAAGAACUCAGGCACAGAAGGGUUUAUGG [salish99_ex5_r4_013] (Eterna round: R97, puzzle: Exclusion 5) , what apparent KD of MS2 coat protein is on record? 38.9

Also UGUGCGUCAGGAUAUUCUAUUUAUUACAUGAGGAUCACCCAUGUGAAUGUACAAGGGUGUGAAGAAGGGACUUGUG [LRO-Excl5-03-mod A17d by Omei] (Eterna round: R97, puzzle: Exclusion 5) , if possible. 808

Also CGGGUCGGAGGAUAUACAGAAGCAUCUGUGUCGGGAAUAUGACAUGAGGAUCACCCAUGUAGAAGGCCGAUCAC [Eternabot (L2) Solution 98] (Eterna round: R97, puzzle: Exclusion 2) , if possible. 485

Also CGGUGUAGAGGAUAUACGUGAAGAUAAGAAAAUAAUAAUUAACAUGAGGAUCACCCAUGUAGAAGGCUAUAGCG [JR_Ex2_Sub082] (Eterna round: R97, puzzle: Exclusion 2) , if possible. 66.3

Also GUACUGACAGGAUAUACAUGAGGAUCACCCAUGUGCCCUUAAUGAUGCAAAGCAUCAAGUAGAAGGGUCUGUAC [Omei Ex3 Model Bachelor's Dilema v22] (Eterna round: R97, puzzle: Exclusion 3) , if possible. 42.5

Also CAUGAUUGACGAGGAUAUUGUUCUACAUCACGACGAGAAGGCGUCUGUCACAUGAGGAUCACCCAUGUGAGACUGGUGAAUGAG [Ex NG1 #81] (Eterna round: R96, puzzle: Exclusion NG 1) , if possible. 36.4

Also GACCUGAGGCAAAGCUUUAGGCUUACAUGAGGAUCACCCAUGUAGGAUAUGGUAGGCAAAGCUUACCAGAAGGACAUGGAAAUU [Mat - Exclusion NG 3 - Mod of JL - D25] (Eterna round: R96, puzzle: Exclusion NG 3) , if possible. 646

Also UACCCGUGAGGAUAUAGAGUCCUACACAUGAGGAUCACCCAUGUCAGCCUUAUCGUGGAUCUAGAAGGCAUAAACG [Eternabot (L1) Solution 88] (Eterna round: R97, puzzle: Exclusion 5) , if possible. 103

Also UAUUAAACAAGCAGAUCCCACAUGAGGAUCACCCAUGUGCUCGUCUUAUAAGGUACUGUGACGAGAGUCACGGUACC [Mat - Sensor, turn-off var - Eli Mod - D63] (Eterna round: R97, puzzle: Sensor, turn-off variant 1) , if possible. 42.5

Also AAGAAGAAACAAGCUUUUUGCACGUCAUAUAGUGACGCAACAUGAGGAUCACCCAUGUAUAGGGUGGGAAAGGAUAG [JR_SV3TOV2_Sub047] (Eterna round: R96, puzzle: Sensor v3, turn-off variant 2) , if possible. 669

Also GGGCCCGGUGUGAGGAUAUGUGAUCGGAAAUGAUCGUAGAAGGCACAUGAGGAUCACCCAUGUAAGCCGGGCCC [-31.3, -29.2 kcal, A 26%, 2-0] (Eterna round: R97, puzzle: Brourd's mod of Exclusion 4) , if possible. 34.2

Also AUGAUACAUGAGGAUCACCCAUGUUAGGAUAUACGCAUGCAUGCAUGCAUGCAUGCAAGUAGAAGGAACCAUGC [Design #2] (Eterna round: R97, puzzle: Exclusion 1) , if possible. 56.8

Also UUUUUUUGAGUAAGGAUAUGAUGCAGGAAACUGCGUCAGAAGGUACAUGAGGAUCACCCAUGUUAAUUUUGUUU [Explosion 14 - Jieux - Brourd's mod of Exclusion 4] (Eterna round: R97, puzzle: Brourd's mod of Exclusion 4) , if possible. 18.4

Also CGUCUGUAAGGAUAUGGUUGCAUCGACAUGAGGAUCACCCAUGUAACGUGGGACUAGUGAUUAGAAGGUACGAACG [EX5 #61] (Eterna round: R97, puzzle: Exclusion 5) , if possible. 110

Also AUAGUAGAAGUGAGGAUAUCGUAGAUUUUAGGAAACGAGAAGGCACAUGAGGAUCACCCAUGUAAGAUGGAGGU [JR_BMOE4_Sub051] (Eterna round: R96, puzzle: Brourd's mod of Exclusion 4) , if possible. 380

Also ACAAGCUUAAUCAGUAAGAACAUGAGGAUCACCCAUGUAAAAGGGAAGACAAUUGGGUUAUUUAAAGCUCGUCUUAU [JR_STOV1_Sub015] (Eterna round: R97, puzzle: Sensor, turn-off variant 1) , if possible. 62.7

Also GGCCUUCCGCAAGCUUUUUACAUGAGGAUCACCCAUGUGGUUUUUAGUCUUAUGUUCGGGCCCGUGUGGGCUCGGGC [-25.5, -46.5, A 13%] (Eterna round: R97, puzzle: Sensor, turn-off variant 1) , if possible. 28.4

Also CCGGAUUAGGAGGAUAUAGGAGUCGAUAGACACCUAGAAGGCCUGACAUGAGGAUCACCCAUGUGUCCUACCGG [Mod of Eli 17 - Jieux - Exclusion 6] (Eterna round: R97, puzzle: Exclusion 6) , if possible. 48.6
